Biological target: HCV polymerase H544 1b 3X (Hepatitis C virus genotype 1b)
Construct: a region encoding NS5B (J Virol 1991 March, 65(3), 1105-13, 544 amino acids after deletion of 47 amino acids on the C-terminal); 6 His (C); made in house; host or cells: Escherichia coli
Sequence (P26663 2420-2963): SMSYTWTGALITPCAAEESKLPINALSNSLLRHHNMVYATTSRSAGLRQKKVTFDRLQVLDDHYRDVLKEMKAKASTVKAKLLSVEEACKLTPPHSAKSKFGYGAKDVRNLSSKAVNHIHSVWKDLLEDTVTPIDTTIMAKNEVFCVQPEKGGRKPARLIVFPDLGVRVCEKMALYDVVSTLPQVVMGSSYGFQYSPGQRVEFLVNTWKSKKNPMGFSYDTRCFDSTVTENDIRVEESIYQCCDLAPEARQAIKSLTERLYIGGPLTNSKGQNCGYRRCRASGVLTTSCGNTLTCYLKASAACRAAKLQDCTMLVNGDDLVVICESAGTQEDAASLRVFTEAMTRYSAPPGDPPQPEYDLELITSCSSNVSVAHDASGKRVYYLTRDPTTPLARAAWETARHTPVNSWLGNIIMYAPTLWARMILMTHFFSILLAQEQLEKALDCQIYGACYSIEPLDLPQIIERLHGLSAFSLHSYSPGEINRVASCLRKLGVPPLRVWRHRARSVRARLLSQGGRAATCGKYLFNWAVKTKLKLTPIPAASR
Assay: Assay of enzyme (HCV polymerase) inhibitory activity, H544 1b 3X
Format: biochemical, HCV BK strain
Structures can show the parent of a compound that is named as a salt.
experimental-endpoint: IC50

Use the examples below as a reference point.
[ask] Entry Cn1c(-c2ccc(OCc3ccc(N4CCCC4=O)cc3N3CCOCC3)cc2)c(C2CCCCC2)c2sc(C(=O)O)cc21 [Example 34, hydrochloride] , system HCV polymerase H544 1b 3X (Hepatitis C virus genotype 1b): what IC50 was measured?
[reply] < 100 nM

[ask] Entry CC(C(=O)N(C)c1ccc(N2CCOCC2)cc1)n1c(-c2ccc(OCc3ccccc3)cc2)c(C2CCCCC2)c2sc(C(=O)O)cc21 (stereo not drawn) [Example 60, hydrochloride] , system HCV polymerase H544 1b 3X (Hepatitis C virus genotype 1b): what IC50 was measured?
[reply] 100 to 1000 nM

Then there is this compound:
[ask] Entry O=C(O)c1cc2c(s1)c(C1CCCCC1)c(-c1ccc(OCc3ccccc3)cc1)n2CC(=O)N1CCC(N2CCCCC2)CC1 [Example 54, hydrochloride] , system HCV polymerase H544 1b 3X (Hepatitis C virus genotype 1b): what IC50 was measured?
[reply] < 100 nM

----------
Listed below: pIC50 values for each entry.
Molecular target: HCV polymerase H544 1b 3X (Hepatitis C virus genotype 1b)
Construct: a region encoding NS5B (J Virol 1991 March, 65(3), 1105-13, 544 amino acids after deletion of 47 amino acids on the C-terminal); 6 His (C)
Assay: Assay of enzyme (HCV polymerase) inhibitory activity, H544 1b 3X
pIC50: −log10 of the molar value. Structures can show the parent of a compound that is named as a salt.

[ask] Please report the recorded pIC50 for Cn1c(-c2ccc(OCc3cc(N4CCCC4=O)ccc3N3CCOCC3)cc2)c(C2CCCCC2)c2sc(C(=O)O)cc21 [Example 15, hydrochloride] .
[reply] > 7.00

[ask] Please report the recorded pIC50 for O=C(Cn1c(-c2ccc(OCc3ccccc3)cc2)c(C2CCCCC2)c2sc(C(=O)O)cc21)Nc1ccc(N2CCOCC2)cc1 [Example 51, hydrochloride] .
[reply] > 7.00

[ask] Please report the recorded pIC50 for Cn1c(-c2ccc(OCc3cc(S(C)(=O)=O)ccc3N3CCOCC3)cc2)c(C2CCCCC2)c2sc(C(=O)O)cc21 [Example 23, hydrochloride] .
[reply] > 7.00

[ask] Please report the recorded pIC50 for `COc1ccc(-c2c(C3CCCCC3)c3sc(C(=O)O)cc3n2CC(=O)N2CCC(N(C)C)CC2)cc1` .
[reply] > 7.00

[ask] Please report the recorded pIC50 for O=C(O)c1cc2c(s1)c(C1CCCCC1)c(-c1ccc(OCc3ccccc3)cc1)n2CC(=O)N1CCN(C2CCCCC2)CC1 [Example 52, hydrochloride] .
[reply] > 7.00

[ask] Please report the recorded pIC50 for `O=C(O)c1cc2c(s1)c(C1CCCCC1)c(-c1ccc(OCc3ccccc3)cc1)n2CC1CCCCC1` .
[reply] 6.00 to 7.00

[ask] Please report the recorded pIC50 for CC(C)C(=O)Nc1ccc(N2CCOCC2)c(COc2ccc(-c3c(C4CCCCC4)c4sc(C(=O)O)cc4n3C)cc2)c1 [Example 29, hydrochloride] .
[reply] > 7.00

[ask] Please report the recorded pIC50 for `O=C(O)c1cc2c(s1)c(C1CCCCC1)c(-c1ccc(OCc3ccccc3)cc1)n2CCN1CCOCC1` .
[reply] 6.00 to 7.00

More entries:
[ask] Please report the recorded pIC50 for `CC(C)(C)NC(=O)Cn1c(-c2ccc(OCc3ccccc3)cc2)c(C2CCCCC2)c2sc(C(=O)O)cc21` .
[reply] 6.00 to 7.00

[ask] Please report the recorded pIC50 for `CN(C)C(=O)Cn1c(-c2ccc(OCc3ccccc3)cc2)c(C2CCCCC2)c2sc(C(=O)O)cc21` .
[reply] > 7.00

[ask] Please report the recorded pIC50 for Cn1c(-c2ccc(OCc3ccccc3N3CCOCC3)cc2)c(C2CCCCC2)c2sc(C(=O)O)cc21 [Example 31, hydrochloride] .
[reply] > 7.00

[ask] Please report the recorded pIC50 for `CN(C)C(=O)Cn1c(-c2ccc(OCc3ccccc3N3CCOCC3)cc2)c(C2CCCCC2)c2sc(C(=O)O)cc21` .
[reply] > 7.00

[ask] Please report the recorded pIC50 for CN(C(=O)CN1CCOCC1)c1ccc(N2CCOCC2)c(COc2ccc(-c3c(C4CCCCC4)c4sc(C(=O)O)cc4n3C)cc2)c1 [Example 57, dihydrochloride] .
[reply] > 7.00

Origin of the recorded values: patent US20090036444A1
